From: the supplement of paper PMC6992640

Test system: WHIM2 (cells of a triple-negative basal-like breast cancer xenograft);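 note: PDX cells carrying CMV promoter-driven luciferase, viability read as total photon flux per second by IVIS imaging following D-luciferin, vehicle control 0.1% DMSO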
Assay: cell viability (% of vehicle); higher = less cytotoxic
Conditions: 10 µM; 72 h
cell viability strictly less than 90 = T. Otherwise F.

Here's what some known entries look like.
{"Molecule": "Cl.NC(N)=NC(=O)c1nc(Cl)c(N)nc1N.O.O [Amiloride HCl dihydrate]", "Assayed Target": "WHIM2", "Category": "T"}
{"Molecule": "CC(C)(C)c1cc(NC(=O)Nc2ccc(-c3cn4c(n3)sc3cc(OCCN5CCOCC5)ccc34)cc2)no1", "Assayed Target": "WHIM2", "Category": "T"}
{"Molecule": "CCC1OC(=O)C(C)C(OC2CC(C)(OC)C(O)C(C)O2)C(C)C(OC2OC(C)CC(N(C)C)C2O)C(C)(O)CC(C)CN(C)C(C)C(O)C1(C)O (stereo not given)", "Assayed Target": "WHIM2", "Category": "F"}
{"Molecule": "Cc1cccc(C)c1OCC(C)N.Cl (stereo not given) [Mexiletine HCl]", "Assayed Target": "WHIM2", "Category": "F"}
{"Molecule": "O=c1cc[nH]c(=S)[nH]1", "Assayed Target": "WHIM2", "Category": "F"}

stdin: Please check: cell viability for NCC1OC(OC2C(N)CC(N)C(OC3OC(CO)C(O)C(N)C3O)C2O)C(N)CC1O (stereo not given) , strictly under 90 or not?
stdout: F

stdin: In plain terms, does CC1(C)CCC(CN2CCN(c3ccc(C(=O)NS(=O)(=O)c4ccc(NCC5CCOCC5)c([N+](=O)[O-])c4)c(Oc4cnc5[nH]ccc5c4)c3)CC2)=C(c2ccc(Cl)cc2)C1 come in under 90 for cell viability?
stdout: F

stdin: For NCCCCC(NC(CCc1ccccc1)C(=O)O)C(=O)N1CCCC1C(=O)O.O.O (stereo not given) [Lisinopril dihydrate] , is the recorded cell viability below the cut-off of 90?
stdout: F

stdin: is_below(cell viability, 90) for CC(O)C1C(=O)N2C(C(=O)O)=C(SC3CNC(C(=O)N(C)C)C3)C(C)C12 (stereo not given) ?
stdout: T

stdin: Say whether its cell viability is strictly beneath 90. Entry: O=C(O)C1=COC(OC2OC(CO)C(O)C(O)C2O)C2C(CO)=CCC12 (stereo not given)
stdout: F

stdin: Hello, I'm reviewing records and need to know if cell viability of C=C1C(CO)C(O)CC1n1cnc2c(=O)nc(N)[nH]c21.O (stereo not given) [Entecavir Hydrate] is below 90. Could you check?
stdout: T

stdin: Quick check: does CN(C)CC=CC(=O)Nc1cc2c(Nc3ccc(F)c(Cl)c3)ncnc2cc1OC1CCOC1.O=C(O)C=CC(=O)O.O=C(O)C=CC(=O)O (stereo not given) [Afatinib dimaleate] have cell viability under 90?
stdout: T

stdin: Regarding Nc1ncn(C2OC(CO)C(O)C2O)c(=O)n1 (stereo not given) , kindly confirm whether its cell viability is beneath 90.
stdout: T

stdin: Hello, I'm reviewing records and need to know if cell viability of Cn1c(=O)cc(N2CCCC(N)C2)n(Cc2ccccc2C#N)c1=O (stereo not given) [Alogliptin (SYR-322)] is below 90. Could you check?
stdout: F
